Catalogue of sequences with associated PBM binding z-score
Tested on: RARb:RXRa (NR concentration 270 nM, RXRa partner concentration 90 nM)
Experiment: PBM binding z-score (relative to random genomic background probes); higher = stronger binding; sequences stand for … in GC…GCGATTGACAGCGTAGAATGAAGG
experimental endpoint: PBM binding z-score

INSERT INTO measurements (sequence_code, observed_result) VALUES
  ('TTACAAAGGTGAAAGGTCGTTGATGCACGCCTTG', 4.25),
  ('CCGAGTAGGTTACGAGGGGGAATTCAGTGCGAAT', 1.26),
  ('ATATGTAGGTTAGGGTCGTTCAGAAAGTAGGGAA', 1.92),
  ('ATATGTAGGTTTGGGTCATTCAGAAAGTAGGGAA', 2.07),
  ('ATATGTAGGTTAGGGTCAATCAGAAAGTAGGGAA', 3.59),
  ('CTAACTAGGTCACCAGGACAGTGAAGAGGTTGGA', 4.28);
